Recorded growth for the following molecules
- Test system: A498 renal
- method: NCI-60 one-dose screen, 48 h (100 = growth as untreated, 0 = no growth, -100 = all killed)
- statedConditions: 10 µM unless noted
This is part of a sample that, as a whole, favours compounds with a hit. Of some 83,000 tested, about 20% had one in any assay.
Kindly answer with a numeric value in %, unit omitted.

# input Sample COc1ccc(-n2c(=S)sc3c(Cl)nc(C)nc32)c(OC)c1 — what was its growth?
# output 110

# input Sample COc1ccc(C(=O)c2cc(OC)c3c(c2)OCO3)cc1O — what was its growth?
# output 61.9

# input Sample O=C(O)c1nc(-c2ccccc2)oc1N1CCOCC1 — what was its growth?
# output 114

# input Sample COC(=O)C1CCCN1C(=O)[C@@H]1CCCN1C(=O)[C@H](Cc1c[nH]c2ccccc12)NC(=S)Nc1cc(C(F)(F)F)cc(C(F)(F)F)c1 (stereo partly specified) — what was its growth?
# output 65.4

# input Sample Cc1cc(N/N=C/c2nc(-c3ccc(Br)cc3)oc2C)c2cc(Br)ccc2n1 — what was its growth?
# output 85.7

# input Sample COc1cc(/C=C/C(=O)c2c(C)nc3ccccc3c2C)ccc1OCCCCOc1cc2c(cc1OC)C(=O)N1CCC[C@H]1C=N2 — what was its growth?
# output -84.5

# input Sample COc1ccc(-c2cnoc2-c2ccc(OC)cc2O)cc1 — what was its growth?
# output 7.36

# input Sample C=C1CCC2C3(C)COC(c4ccccc4)OC3CCC2(C)C1/C=C/C1=CCOC1=O (stereo unspecified) — what was its growth?
# output 106

# input Sample N#Cc1c(-c2ccccc2)nc(SCC(=O)N2CCN(c3ccccc3)CC2)[nH]c1=O — what was its growth?
# output 116

# input Sample COc1cc(Cn2cc3c(c2)-c2oncc2CC3)cc(OC)c1OC — what was its growth?
# output -1.56

# input Sample CCCCN(CCCC)C(=O)CC — what was its growth?
# output 97.7

# input Sample COc1ccc(S(=O)(=O)NCCCNc2nccc(-c3c(-c4cccc([N+](=O)[O-])c4)nc4sccn34)n2)cc1 — what was its growth?
# output 46.2
